Target: Tyrosine-protein kinase JAK1 (Homo sapiens, UniProt P23458)
Sequence (P23458 whole entry, the tested form may be a part): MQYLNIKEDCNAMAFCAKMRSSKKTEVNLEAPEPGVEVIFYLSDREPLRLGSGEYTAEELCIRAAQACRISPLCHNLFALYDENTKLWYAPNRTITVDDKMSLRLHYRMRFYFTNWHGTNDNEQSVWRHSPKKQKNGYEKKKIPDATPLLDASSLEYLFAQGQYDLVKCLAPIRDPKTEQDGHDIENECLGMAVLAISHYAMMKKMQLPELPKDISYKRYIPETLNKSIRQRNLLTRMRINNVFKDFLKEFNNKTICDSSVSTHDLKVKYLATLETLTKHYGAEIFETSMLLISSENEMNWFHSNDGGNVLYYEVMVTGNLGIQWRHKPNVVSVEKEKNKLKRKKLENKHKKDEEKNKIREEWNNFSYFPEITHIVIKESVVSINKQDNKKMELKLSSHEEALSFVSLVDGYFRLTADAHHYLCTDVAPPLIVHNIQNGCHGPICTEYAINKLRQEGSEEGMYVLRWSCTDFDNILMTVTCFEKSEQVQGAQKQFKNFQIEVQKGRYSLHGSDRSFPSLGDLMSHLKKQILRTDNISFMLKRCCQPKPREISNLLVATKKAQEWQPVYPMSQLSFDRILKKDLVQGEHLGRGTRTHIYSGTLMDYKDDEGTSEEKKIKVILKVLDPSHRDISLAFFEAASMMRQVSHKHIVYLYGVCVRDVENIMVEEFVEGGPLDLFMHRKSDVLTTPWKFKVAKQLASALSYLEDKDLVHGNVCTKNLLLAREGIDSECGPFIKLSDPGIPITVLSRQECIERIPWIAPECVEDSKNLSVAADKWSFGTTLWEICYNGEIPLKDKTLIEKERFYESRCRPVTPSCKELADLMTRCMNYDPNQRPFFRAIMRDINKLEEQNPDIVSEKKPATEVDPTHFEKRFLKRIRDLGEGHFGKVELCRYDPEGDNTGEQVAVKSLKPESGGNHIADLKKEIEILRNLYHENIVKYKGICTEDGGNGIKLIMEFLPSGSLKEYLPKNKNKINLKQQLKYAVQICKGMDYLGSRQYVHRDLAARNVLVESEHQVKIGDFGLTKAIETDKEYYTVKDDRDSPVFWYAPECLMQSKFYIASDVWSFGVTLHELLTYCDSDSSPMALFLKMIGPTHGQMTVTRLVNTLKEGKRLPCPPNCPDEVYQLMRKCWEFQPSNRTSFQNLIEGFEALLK
Experiment: Displacement of fluorophore-labeled probe from JAK1 JH2 domain (unknown origin) by HTRF assay
quantityKind: IC50

Name the reported IC50 value associated with the compound CNC(=O)c1cnc(Nc2ccc(C(=O)NC3CCC(Nc4ccc5c(c4)C(=O)N(C4CCC(=O)NC4=O)C5=O)CC3)cn2)cc1Nc1cccc(-c2ncc(F)cn2)c1OC (stereo unspecified)
> 100 nM

====

Experiment: Oral bioavailability in male ICR mouse at 10 mg/kg measured up to 24 hrs by LC-MS/MS analysis
Type: ADME, organism-based
Conditions: in vivo
quantityKind: bioavailability (%)
Write it as a number; the unit % goes unstated.

Looking for the measured bioavailability of CNC(=O)c1cnc(Nc2ccc(C(=O)N(C)C3CCN(c4ccc5c(c4)C(=O)N(C4CCC(=O)NC4=O)C5=O)CC3)cn2)cc1Nc1cccc(-c2ncc(F)cn2)c1OC (stereo unspecified) , can you help?
2.2

====

Recorded Activity by entry
Target: Protein cereblon/Non-receptor tyrosine-protein kinase TYK2 (Homo sapiens, UniProt P29597+Q96SW2)
Sequence (P29597 whole entry, looked up): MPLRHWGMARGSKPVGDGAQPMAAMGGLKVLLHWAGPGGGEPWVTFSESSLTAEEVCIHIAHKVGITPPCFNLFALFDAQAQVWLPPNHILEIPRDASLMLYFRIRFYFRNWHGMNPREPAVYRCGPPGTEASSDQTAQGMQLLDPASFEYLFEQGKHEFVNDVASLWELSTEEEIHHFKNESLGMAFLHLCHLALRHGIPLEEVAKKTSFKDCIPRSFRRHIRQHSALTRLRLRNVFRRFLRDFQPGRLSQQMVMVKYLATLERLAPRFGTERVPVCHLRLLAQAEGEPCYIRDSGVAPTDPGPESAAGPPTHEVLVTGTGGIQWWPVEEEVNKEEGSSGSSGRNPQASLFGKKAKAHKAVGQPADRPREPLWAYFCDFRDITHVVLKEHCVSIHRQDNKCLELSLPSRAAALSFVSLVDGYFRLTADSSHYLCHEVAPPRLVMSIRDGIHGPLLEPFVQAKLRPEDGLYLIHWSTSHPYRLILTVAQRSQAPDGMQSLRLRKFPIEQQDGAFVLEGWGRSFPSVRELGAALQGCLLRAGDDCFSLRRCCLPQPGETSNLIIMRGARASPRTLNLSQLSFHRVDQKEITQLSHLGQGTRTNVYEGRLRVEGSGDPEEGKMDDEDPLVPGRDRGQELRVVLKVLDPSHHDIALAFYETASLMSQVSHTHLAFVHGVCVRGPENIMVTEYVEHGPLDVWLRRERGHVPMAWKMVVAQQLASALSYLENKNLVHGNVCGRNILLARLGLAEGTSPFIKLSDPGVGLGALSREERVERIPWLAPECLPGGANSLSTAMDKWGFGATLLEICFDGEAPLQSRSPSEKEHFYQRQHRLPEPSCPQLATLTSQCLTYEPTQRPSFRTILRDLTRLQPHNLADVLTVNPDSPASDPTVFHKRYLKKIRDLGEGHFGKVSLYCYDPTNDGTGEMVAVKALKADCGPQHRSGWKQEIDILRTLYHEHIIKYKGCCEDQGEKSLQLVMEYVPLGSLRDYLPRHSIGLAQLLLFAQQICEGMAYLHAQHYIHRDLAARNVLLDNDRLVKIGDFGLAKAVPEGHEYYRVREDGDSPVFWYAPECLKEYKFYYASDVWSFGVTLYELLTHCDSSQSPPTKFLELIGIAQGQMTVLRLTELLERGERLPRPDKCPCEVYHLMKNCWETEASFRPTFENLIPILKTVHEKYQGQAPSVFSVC
Sequence (Q96SW2 whole entry, looked up): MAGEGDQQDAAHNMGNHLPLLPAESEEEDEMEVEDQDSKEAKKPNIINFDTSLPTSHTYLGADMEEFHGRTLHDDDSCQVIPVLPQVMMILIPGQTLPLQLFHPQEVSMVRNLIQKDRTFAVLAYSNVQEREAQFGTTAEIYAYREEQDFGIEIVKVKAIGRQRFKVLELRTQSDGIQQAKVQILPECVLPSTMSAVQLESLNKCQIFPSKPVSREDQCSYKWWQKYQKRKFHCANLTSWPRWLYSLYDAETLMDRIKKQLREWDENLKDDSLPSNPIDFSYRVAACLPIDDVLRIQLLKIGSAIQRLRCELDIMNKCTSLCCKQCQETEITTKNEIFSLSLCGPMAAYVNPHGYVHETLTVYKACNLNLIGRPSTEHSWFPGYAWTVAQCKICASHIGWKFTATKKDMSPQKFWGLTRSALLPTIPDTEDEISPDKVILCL
Experiment: PROTAC activity at CRBN/TYK2 in human Jurkat cells assessed as induction of degradation of TYK2 at 100 nM measured after 10 hrs by Western blot analysis relative to control
Type: cell-based

Here is how some compounds turned out for Activity.
compound	Activity
CNC(=O)c1cnc(Nc2ccc(C(=O)NCCCCNc3cccc4c3C(=O)N(C3CCC(=O)NC3=O)C4=O)cn2)cc1Nc1cccc(-c2ncc(F)cn2)c1OC (stereo unspecified)	82%
CNC(=O)c1cnc(Nc2ccc(C(=O)N3CCN(C4CCN(c5ccc6c(c5)C(=O)N(C5CCC(=O)NC5=O)C6=O)CC4)CC3)cn2)cc1Nc1cccc(-c2ncc(F)cn2)c1OC (stereo unspecified)	7%
CNC(=O)c1cnc(Nc2ccc(C(=O)N3CC(N4CCN(c5ccc6c(c5)C(=O)N(C5CCC(=O)NC5=O)C6=O)CC4)C3)cn2)cc1Nc1cccc(-c2ncc(F)cn2)c1OC (stereo unspecified)	67%
CNC(=O)c1cnc(Nc2ccc(C(=O)N3CCC4(CC3)CCN(c3ccc5c(c3)C(=O)N(C3CCC(=O)NC3=O)C5=O)CC4)cn2)cc1Nc1cccc(-c2ncc(F)cn2)c1OC (stereo unspecified)	13%

Read the next record carefully.
Fill blank: measured Activity of the compound CNC(=O)c1cnc(Nc2ccc(C(=O)NCCOCCOCCNc3cccc4c3C(=O)N(C3CCC(=O)NC3=O)C4=O)cn2)cc1Nc1cccc(-c2ncc(F)cn2)c1OC (stereo unspecified) is ____.
56%
